Source of measurements: patent US8410097B2

# system_tested: CB1 cannabinoid receptor (Rattus norvegicus, UniProt P20272)
# Construct: membranes were prepared from rat forebrain membranes; from tissue; host or cells: rat forebrain membranes
# Sequence (P20272 whole entry): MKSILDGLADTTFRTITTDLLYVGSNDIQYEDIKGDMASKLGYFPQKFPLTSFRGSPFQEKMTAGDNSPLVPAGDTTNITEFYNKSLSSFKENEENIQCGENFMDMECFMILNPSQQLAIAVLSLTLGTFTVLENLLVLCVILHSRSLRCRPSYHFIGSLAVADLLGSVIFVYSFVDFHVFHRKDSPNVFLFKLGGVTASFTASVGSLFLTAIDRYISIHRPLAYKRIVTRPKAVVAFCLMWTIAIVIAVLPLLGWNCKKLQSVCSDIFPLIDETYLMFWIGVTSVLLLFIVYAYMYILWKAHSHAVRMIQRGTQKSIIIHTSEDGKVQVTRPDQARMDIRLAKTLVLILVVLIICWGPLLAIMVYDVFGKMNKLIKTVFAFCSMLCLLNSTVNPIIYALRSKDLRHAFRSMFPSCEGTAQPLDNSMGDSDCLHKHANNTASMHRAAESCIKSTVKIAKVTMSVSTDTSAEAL
# protocol_summary: biochemical
# Type: binding
# condition_description: CB1 Ki, Table 6; rat forebrain membranes, 0.8 nM [3H] CP-55,940
pKi: −log10 of the molar value.
Could you label it satisfied if measured pKi is 8 or higher, and not satisfied otherwise?

Observe how each entry below is paired with its result.
>  <molecular_string>
Cc1c(C(=O)NN2CCCCC2)nc(-c2ccc(Cl)cc2Cl)n1-c1ccc(C#CCO)cc1

>  <group_label>
not satisfied

$$$$
>  <molecular_string>
CN(C(=O)c1nc(-c2ccc(Cl)cc2Cl)n(-c2ccc(Br)cc2)c1CO)C1CCCCC1

>  <group_label>
not satisfied

$$$$
>  <molecular_string>
O=C(NN1CCCCC1)c1nc(-c2ccc(Cl)cc2Cl)n(-c2ccc(C#CCO)cc2)c1CO

>  <group_label>
not satisfied

$$$$

Task: # bool: pKi of O=C(Nc1nc(-c2ccc(Cl)cc2Cl)n(-c2ccc(I)cc2)c1CBr)NC1CCCCC1 >= 8
Output: satisfied

Task: # bool: pKi of Cc1cc(Br)ccc1-n1c(-c2ccc(Cl)cc2Cl)nc(C(=O)NN2CCCCC2)c1C >= 8
Output: not satisfied
